B1: HDV Ribozyme (parent)
chain: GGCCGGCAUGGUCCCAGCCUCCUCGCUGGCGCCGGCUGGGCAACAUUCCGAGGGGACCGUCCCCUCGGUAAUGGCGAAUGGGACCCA

Variants of: B1
Assay: self-cleavage, relative activity (ratio to wild type); higher = more cleavage; co-transcriptional
Measurement name: self-cleavage
I only need the number, thanks.

Mutations	Measurement name	Value observed
C44U U79G	self-cleavage	0.727
G34A A70U	self-cleavage	0.132
A16C C30A	self-cleavage	0.208
G54C C58A	self-cleavage	0.923
A43G A78G	self-cleavage	0.119
C13A C63G	self-cleavage	0.38
C24U G53C	self-cleavage	0.848
A51U A56G	self-cleavage	1.11

Qu. Request the reported self-cleavage associated with U12C C63A
Ans. 0.268

Qu. Query (variant): C21U G67A ; field requested: self-cleavage
Ans. 0.158

Qu. So what does the record say about self-cleavage for G2U G34C ?
Ans. 0.0484

src = the RNAGym collection of RNA variant scans (doi:10.7554/elife.80360)
